# systemName: Acetylcholinesterase (Homo sapiens)
# Sequence (P22303 whole entry): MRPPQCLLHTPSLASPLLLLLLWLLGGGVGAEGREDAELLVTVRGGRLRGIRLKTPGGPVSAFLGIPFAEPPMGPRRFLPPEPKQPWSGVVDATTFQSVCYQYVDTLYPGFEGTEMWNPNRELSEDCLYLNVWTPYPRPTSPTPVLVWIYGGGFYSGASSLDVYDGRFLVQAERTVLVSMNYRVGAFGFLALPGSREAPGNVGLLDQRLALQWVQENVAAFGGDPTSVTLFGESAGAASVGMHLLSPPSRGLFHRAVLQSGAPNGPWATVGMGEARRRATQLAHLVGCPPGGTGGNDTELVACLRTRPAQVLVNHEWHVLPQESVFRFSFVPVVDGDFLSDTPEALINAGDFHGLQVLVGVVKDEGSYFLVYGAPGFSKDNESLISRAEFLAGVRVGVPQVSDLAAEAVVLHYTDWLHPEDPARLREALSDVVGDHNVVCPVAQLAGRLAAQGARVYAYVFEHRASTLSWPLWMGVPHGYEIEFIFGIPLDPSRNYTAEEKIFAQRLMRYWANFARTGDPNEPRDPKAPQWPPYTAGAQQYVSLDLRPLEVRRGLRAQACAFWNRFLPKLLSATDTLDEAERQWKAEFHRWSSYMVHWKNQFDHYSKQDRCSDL
# experimentalDetails: Inhibition of human AChE using ATCI as substrate preincubated for 30 mins followed by substrate addition measured after 30 mins by Ellman's method relative to control
# Design: concentration or dose not given beside the values
# assayConditions: time 60.0 min
Recorded inhibition by entry
Express it in %; write the number only.

Here are 5 compounds together with their reported answers.
COc1ccccc1NC(=O)Nc1cccc(/C(N)=N/O)c1
49
Cc1ccc(NC(=O)Nc2cccc(/C(N)=N/O)c2)cc1
39.9
N/C(=N\O)c1cccc(NC(=O)Nc2ccccc2Cl)c1
49.2
N/C(=N\O)c1cccc(NC(=O)Nc2ccccc2)c1
47.9
Cc1cccc(NC(=O)Nc2cccc(/C(N)=N/O)c2)c1
42.5

Next:
# input Would you mind telling me what inhibition value was observed for `N/C(=N\O)c1cccc(NC(=O)Nc2ccccc2Br)c1` ?
# output 47.7
